Reported pIC50 by item:
- TESTED_SYSTEM: Nuclear factor NF-kappa-B complex (Homo sapiens, UniProt P19838+Q00653+Q04206)
- Sequence (P19838 1-433 limits assumed): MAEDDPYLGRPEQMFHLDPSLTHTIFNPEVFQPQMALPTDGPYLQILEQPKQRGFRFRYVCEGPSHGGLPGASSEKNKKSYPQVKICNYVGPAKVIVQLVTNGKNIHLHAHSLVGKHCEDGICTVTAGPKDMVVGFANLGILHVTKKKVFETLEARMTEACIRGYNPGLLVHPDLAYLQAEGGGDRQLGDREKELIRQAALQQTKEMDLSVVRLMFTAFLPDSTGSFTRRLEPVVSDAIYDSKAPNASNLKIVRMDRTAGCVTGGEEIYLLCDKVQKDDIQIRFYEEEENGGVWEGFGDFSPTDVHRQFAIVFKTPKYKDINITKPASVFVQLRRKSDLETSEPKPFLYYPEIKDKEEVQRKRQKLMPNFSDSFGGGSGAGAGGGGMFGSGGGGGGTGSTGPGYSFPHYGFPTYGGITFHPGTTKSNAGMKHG
- Sequence (Q00653 1-454 limits assumed): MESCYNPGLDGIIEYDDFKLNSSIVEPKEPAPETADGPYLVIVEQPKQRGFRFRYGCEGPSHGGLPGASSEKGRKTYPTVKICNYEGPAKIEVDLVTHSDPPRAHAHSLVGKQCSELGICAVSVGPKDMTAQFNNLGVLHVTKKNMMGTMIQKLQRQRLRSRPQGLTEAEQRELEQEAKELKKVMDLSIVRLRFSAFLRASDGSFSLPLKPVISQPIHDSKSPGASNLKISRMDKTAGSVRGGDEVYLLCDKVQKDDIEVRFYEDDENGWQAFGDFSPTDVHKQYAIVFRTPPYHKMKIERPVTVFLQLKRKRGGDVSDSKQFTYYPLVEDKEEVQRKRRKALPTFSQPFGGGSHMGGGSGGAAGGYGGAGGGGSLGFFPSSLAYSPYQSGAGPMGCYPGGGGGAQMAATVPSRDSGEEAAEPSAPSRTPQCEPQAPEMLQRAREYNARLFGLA
- Sequence (Q04206 whole entry): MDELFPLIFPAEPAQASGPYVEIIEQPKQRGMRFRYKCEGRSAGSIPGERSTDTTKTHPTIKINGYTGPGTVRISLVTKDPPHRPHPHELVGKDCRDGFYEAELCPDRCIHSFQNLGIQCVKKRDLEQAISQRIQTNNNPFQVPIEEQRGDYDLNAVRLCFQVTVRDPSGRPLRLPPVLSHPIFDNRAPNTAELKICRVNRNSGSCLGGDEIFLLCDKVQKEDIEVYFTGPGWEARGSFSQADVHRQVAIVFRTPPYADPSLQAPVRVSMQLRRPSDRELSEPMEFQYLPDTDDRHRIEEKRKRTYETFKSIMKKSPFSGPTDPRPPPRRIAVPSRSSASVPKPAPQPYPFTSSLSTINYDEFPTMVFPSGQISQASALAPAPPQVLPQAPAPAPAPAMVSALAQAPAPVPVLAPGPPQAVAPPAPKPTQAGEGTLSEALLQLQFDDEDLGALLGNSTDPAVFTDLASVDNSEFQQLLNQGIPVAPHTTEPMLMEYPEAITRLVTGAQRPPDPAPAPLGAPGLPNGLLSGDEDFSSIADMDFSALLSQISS
- ASSAY_PROCEDURE: Inhibition of NF-kappaB (unknown origin)
Lab note — pIC50 values are minus log10 of concentrations in M.

Here is how some compounds turned out for pIC50.
>  <COMPOUND>
CC(C)[C@]12O[C@H]1[C@@H]1O[C@]13[C@]1(O[C@H]1C[C@H]1C4=C(CC[C@@]13C)C(=O)OC4)[C@@H]2O [TRIPTOLIDE]

>  <TESTED_SYSTEM>
Nuclear factor NF-kappa-B complex (Homo sapiens, UniProt P19838+Q00653+Q04206)

>  <REPORTED_VALUE>
8.00

$$$$
>  <COMPOUND>
C[C@@H]1C[C@H]2[C@@H]3CCC4=CC(=O)C=C[C@]4(C)C3=CC[C@]2(C)[C@@]1(O)C(=O)CO

>  <TESTED_SYSTEM>
Nuclear factor NF-kappa-B complex (Homo sapiens, UniProt P19838+Q00653+Q04206)

>  <REPORTED_VALUE>
7.18

$$$$

Okay, next one:
query: Query: pIC50; subject: O=C(O)c1cc(/N=N/c2ccc(S(=O)(=O)Nc3ccccn3)cc2)ccc1O
result: 5.00

###

- TESTED_SYSTEM: UniProtKB P26358
- Sequence (P26358 whole entry): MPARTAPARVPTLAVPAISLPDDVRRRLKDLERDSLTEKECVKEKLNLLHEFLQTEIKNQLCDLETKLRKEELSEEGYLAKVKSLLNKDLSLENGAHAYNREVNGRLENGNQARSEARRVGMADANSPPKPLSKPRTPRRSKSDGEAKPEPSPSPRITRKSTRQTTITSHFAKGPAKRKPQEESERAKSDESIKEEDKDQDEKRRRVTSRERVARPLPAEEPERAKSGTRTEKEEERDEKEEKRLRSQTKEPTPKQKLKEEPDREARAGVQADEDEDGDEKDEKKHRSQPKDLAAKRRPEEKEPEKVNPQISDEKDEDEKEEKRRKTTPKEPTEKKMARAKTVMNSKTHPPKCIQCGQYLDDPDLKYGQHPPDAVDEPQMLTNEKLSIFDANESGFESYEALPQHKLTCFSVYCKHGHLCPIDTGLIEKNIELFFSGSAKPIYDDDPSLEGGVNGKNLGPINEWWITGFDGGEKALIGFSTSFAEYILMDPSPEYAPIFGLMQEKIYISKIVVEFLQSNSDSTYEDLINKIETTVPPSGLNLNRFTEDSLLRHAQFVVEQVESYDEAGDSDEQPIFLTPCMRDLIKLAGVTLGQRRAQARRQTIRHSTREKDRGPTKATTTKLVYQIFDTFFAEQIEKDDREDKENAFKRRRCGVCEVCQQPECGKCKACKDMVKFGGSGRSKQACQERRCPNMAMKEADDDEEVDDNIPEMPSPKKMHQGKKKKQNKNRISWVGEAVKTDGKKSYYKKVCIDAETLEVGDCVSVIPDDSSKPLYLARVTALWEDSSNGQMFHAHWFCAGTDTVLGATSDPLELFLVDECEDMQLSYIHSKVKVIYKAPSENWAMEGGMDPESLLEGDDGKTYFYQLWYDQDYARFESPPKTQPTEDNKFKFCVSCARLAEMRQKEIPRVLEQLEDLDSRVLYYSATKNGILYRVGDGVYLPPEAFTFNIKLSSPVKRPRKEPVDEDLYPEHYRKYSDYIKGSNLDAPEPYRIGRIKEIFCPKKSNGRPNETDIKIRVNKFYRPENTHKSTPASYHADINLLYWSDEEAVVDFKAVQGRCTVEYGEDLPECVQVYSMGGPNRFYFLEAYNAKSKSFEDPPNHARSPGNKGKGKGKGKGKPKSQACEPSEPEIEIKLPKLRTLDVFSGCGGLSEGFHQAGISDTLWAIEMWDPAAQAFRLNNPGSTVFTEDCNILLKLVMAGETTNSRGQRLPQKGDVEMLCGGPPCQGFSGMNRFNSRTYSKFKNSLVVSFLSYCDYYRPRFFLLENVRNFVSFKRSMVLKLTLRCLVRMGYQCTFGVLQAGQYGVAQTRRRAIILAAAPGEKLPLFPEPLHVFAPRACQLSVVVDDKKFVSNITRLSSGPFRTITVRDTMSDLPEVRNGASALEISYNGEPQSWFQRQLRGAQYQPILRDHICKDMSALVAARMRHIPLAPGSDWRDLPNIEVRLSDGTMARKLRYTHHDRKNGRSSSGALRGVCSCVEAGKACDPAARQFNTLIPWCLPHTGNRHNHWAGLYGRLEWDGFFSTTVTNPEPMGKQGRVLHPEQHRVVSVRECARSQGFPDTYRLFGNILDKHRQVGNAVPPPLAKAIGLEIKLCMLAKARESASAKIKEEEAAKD
RESULT_TYPE: IC50

query: Any idea what IC50 came out for COc1cc(/C=C/C(=O)CC(=O)/C=C/c2ccc(O)c(OC)c2)ccc1O on UniProtKB P26358?
result: ≤ 1 µM

###

- TESTED_SYSTEM: Histone acetyltransferase type B catalytic subunit (Homo sapiens)
- Sequence (O14929 whole entry): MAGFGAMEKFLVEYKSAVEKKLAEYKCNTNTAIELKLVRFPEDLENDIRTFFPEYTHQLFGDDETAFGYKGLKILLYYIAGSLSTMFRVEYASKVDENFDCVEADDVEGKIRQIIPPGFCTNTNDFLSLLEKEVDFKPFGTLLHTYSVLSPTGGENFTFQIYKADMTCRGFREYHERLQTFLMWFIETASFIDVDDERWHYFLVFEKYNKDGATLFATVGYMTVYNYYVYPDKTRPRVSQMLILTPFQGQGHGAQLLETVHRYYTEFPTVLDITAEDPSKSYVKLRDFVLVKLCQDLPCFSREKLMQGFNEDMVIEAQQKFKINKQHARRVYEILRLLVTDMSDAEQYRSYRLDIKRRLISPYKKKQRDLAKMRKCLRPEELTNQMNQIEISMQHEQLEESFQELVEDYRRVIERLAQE
- ASSAY_PROCEDURE: Inhibition of HAT1 (unknown origin)
pIC50: −log10 of the molar value.
RESULT_TYPE: pIC50

query: Consider the compound shown here: COc1cc(/C=C/C(=O)CC(=O)/C=C/c2ccc(O)c(OC)c2)ccc1O What is its recorded pIC50?
result: ≥ 6.00

###

- TESTED_SYSTEM: Cyclin-dependent kinase 9 (Homo sapiens, UniProt P50750)
- Sequence (P50750 whole entry): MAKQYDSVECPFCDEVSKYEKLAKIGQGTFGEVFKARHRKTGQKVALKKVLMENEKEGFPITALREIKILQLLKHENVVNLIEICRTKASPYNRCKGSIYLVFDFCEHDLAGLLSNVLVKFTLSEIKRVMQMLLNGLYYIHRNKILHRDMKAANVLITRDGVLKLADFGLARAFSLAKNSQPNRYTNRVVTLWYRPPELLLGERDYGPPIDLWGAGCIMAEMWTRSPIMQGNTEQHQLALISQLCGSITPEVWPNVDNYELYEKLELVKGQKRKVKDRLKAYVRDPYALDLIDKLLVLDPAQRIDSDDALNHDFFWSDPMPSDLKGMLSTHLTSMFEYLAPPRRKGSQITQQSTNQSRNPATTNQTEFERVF
RESULT_TYPE: IC50 (nM)
Give the value in nM but do not write nM after it.

query: # lookup: IC50 of CN1CC[C@H](c2c(OP(=O)(O)O)cc(O)c3c(=O)cc(-c4ccccc4Cl)oc23)[C@H](O)C1
result: 10

###

- TESTED_SYSTEM: Cyclin-dependent kinase 6 (Homo sapiens, UniProt Q00534)
- Sequence (Q00534 whole entry): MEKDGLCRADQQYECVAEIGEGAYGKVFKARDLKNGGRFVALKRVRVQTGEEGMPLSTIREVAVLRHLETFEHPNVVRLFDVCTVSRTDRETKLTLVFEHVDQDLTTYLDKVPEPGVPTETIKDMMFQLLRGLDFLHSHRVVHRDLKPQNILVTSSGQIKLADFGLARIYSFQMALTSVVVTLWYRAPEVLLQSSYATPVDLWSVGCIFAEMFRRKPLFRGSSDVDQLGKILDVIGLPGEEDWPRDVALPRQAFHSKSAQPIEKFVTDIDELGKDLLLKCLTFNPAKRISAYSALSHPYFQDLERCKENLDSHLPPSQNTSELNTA
RESULT_TYPE: pIC50
In simple prose, pIC50 is minus the logarithm base ten of a concentration in moles per litre.

query: I'd like to know its pIC50. The compound in question is CC(C)c1c2cc(-c3nc(Nc4ccc(N5CCNCC5)cn4)ncc3F)ccc2nn1C
result: 8.62
